- Tested on: Vero E6 infected with SARS-CoV-2
- Assay procedure: SARS-CoV-2 infection rate relative to infected DMSO; higher = more infection, active = 60 or less
- Experimental conditions: 24 h
Can you tell me SARS-CoV-2 infection rate for the items I'm about to list?
Just the number please, in %, no unit attached.

For this compound ( Nc1cc(C(Cl)=C(Cl)Cl)c(S(N)(=O)=O)cc1S(N)(=O)=O [clorsulon] (10 µM) ), measured SARS-CoV-2 infection rate is 98

For this compound ( Nc1nccc2c1ncn2C1C=C(CO)C(O)C1O (stereo not given) [3-deazaneplanocin-A] (10 µM) ), measured SARS-CoV-2 infection rate is 112

For this compound ( COc1ccc2[nH]c([S+]([O-])Cc3ncc(C)c(OC)c3C)nc2n1 (stereo not given) [tenatoprazole] (10 µM) ), measured SARS-CoV-2 infection rate is 105

For this compound ( c1cc2c(c(N3CCNCC3)c1)OCCO2 [eltoprazine] (10 µM) ), measured SARS-CoV-2 infection rate is 94.5

For this compound ( N=C(N)NCc1cccc(I)c1 [iobenguane] (10 µM) ), measured SARS-CoV-2 infection rate is 100

For this compound ( CC[C@@H](C)Nc1cc(C(=O)N[C@H]2C[C@H]3CC[C@@H](C2)N3c2ccc(C(=O)C3CC3)cn2)c(C)cc1C(N)=O (10 µM) ), measured SARS-CoV-2 infection rate is 98.5

For this compound ( Oc1c(Cl)cc(Cl)cc1Sc1cc(Cl)cc(Cl)c1O [bithionol] (10 µM) ), measured SARS-CoV-2 infection rate is 106

For this compound ( COc1ccc(C(=O)NCc2ccc(OCCN(C)C)cc2)cc1OC [itopride] (10 µM) ), measured SARS-CoV-2 infection rate is 90.5

For this compound ( O=C1c2c(O)ccc(O)c2C(=O)c2c(NCCNCCO)ccc(NCCNCCO)c21 [mitoxantrone] (0.833333 µM) ), measured SARS-CoV-2 infection rate is 108

For this compound ( O=C(NCC1CCOCC1)c1cnc(Nc2ccc(Cl)cc2Cl)nc1C(F)(F)F (10 µM) ), measured SARS-CoV-2 infection rate is 96

---

- System: Vero E6 infected with SARS-CoV-2
- Assay procedure: inhibition of SARS-CoV-2 cytopathic effect; higher = more antiviral protection, active = above 15
- Experimental conditions: 8.33 nM; 48 h
Can you tell me inhibition of SARS-CoV-2 cytopathic effect for the items I'm about to list?
Just the number please, in %, no unit attached.

Value sought: inhibition of SARS-CoV-2 cytopathic effect, system Vero E6 infected with SARS-CoV-2, item COc1ccc(CCO[C@@H]2CCCC[C@H]2N2CC[C@@H](O)C2)cc1OC . Result: 0.39

Value sought: inhibition of SARS-CoV-2 cytopathic effect, system Vero E6 infected with SARS-CoV-2, item CC(C)=CCC/C(C)=C/CC/C(C)=C/CSc1ccccc1C(=O)O . Result: 2.19

Value sought: inhibition of SARS-CoV-2 cytopathic effect, system Vero E6 infected with SARS-CoV-2, item Oc1ccc(Nc2nc(-c3ccc(Cl)cc3)cs2)cc1 . Result: 0.67

Value sought: inhibition of SARS-CoV-2 cytopathic effect, system Vero E6 infected with SARS-CoV-2, item CN(C)c1ccc(/C=C2\CCCN=C2c2cccnc2)cc1 . Result: -1.76

Value sought: inhibition of SARS-CoV-2 cytopathic effect, system Vero E6 infected with SARS-CoV-2, item Oc1ccc(Cl)c2c1CCC2 . Result: -1.76

Value sought: inhibition of SARS-CoV-2 cytopathic effect, system Vero E6 infected with SARS-CoV-2, item CC(COc1ccccc1)N(CCCl)Cc1ccccc1 (stereo not given) . Result: 2.51

Value sought: inhibition of SARS-CoV-2 cytopathic effect, system Vero E6 infected with SARS-CoV-2, item COc1ccc(NS(=O)(=O)c2ccc(/N=N/c3ccc(O)c(C(=O)O)c3)cc2)nn1 . Result: 3.48

Value sought: inhibition of SARS-CoV-2 cytopathic effect, system Vero E6 infected with SARS-CoV-2, item Nc1nc(N)c2nc(-c3ccccc3)c(N)nc2n1 . Result: 2.72

Value sought: inhibition of SARS-CoV-2 cytopathic effect, system Vero E6 infected with SARS-CoV-2, item CN(Cc1ccccc1)C(=O)[C@H](Cc1ccc2ccccc2c1)NC(=O)[C@@H]1C[C@@H](O)CN1C(=O)c1cn(C)c2ccccc12 . Result: 4.31

Value sought: inhibition of SARS-CoV-2 cytopathic effect, system Vero E6 infected with SARS-CoV-2, item CC1(C)[C@@H](OC(=O)CCC(=O)O)CC[C@]2(C)[C@H]3C(=O)C=C4[C@@H]5C[C@@](C)(C(=O)O)CC[C@]5(C)CC[C@@]4(C)[C@]3(C)CC[C@@H]12 . Result: 0.66

Value sought: inhibition of SARS-CoV-2 cytopathic effect, system Vero E6 infected with SARS-CoV-2, item COC(=O)[C@H](Cc1cccc(C(=N)N)c1)[C@@H](C)NC(=O)c1ccc(-c2cc[n+]([O-])cc2)cc1 . Result: -2.54

Value sought: inhibition of SARS-CoV-2 cytopathic effect, system Vero E6 infected with SARS-CoV-2, item CCC(=O)NO . Result: 3.18

Value sought: inhibition of SARS-CoV-2 cytopathic effect, system Vero E6 infected with SARS-CoV-2, item O=C(O)CCCNC(=O)c1cccnc1 . Result: -2.74

Value sought: inhibition of SARS-CoV-2 cytopathic effect, system Vero E6 infected with SARS-CoV-2, item NC(=O)Nc1sc(-c2ccc(F)cc2)cc1C(N)=O . Result: -0.06

Value sought: inhibition of SARS-CoV-2 cytopathic effect, system Vero E6 infected with SARS-CoV-2, item COc1ccc(NC(=O)c2ccc(C(=N)N(C)C)cc2)c(C(=O)Nc2ccc(Cl)cn2)c1 . Result: 0.96

Value sought: inhibition of SARS-CoV-2 cytopathic effect, system Vero E6 infected with SARS-CoV-2, item C[C@]1(O)C[C@@H](c2nc(-c3ccc4ccc(-c5ccccc5)nc4c3)c3c(N)nccn32)C1 . Result: -0.2

Value sought: inhibition of SARS-CoV-2 cytopathic effect, system Vero E6 infected with SARS-CoV-2, item CC(C)(C)C1CCc2c(sc(NC(=O)c3ccco3)c2C(=O)O)C1 (stereo not given) . Result: 3.15

Value sought: inhibition of SARS-CoV-2 cytopathic effect, system Vero E6 infected with SARS-CoV-2, item CCOC(=O)[C@H](C)C[C@@H](Cc1ccc(-c2ccccc2)cc1)NC(=O)CCC(=O)O . Result: -0.1

Value sought: inhibition of SARS-CoV-2 cytopathic effect, system Vero E6 infected with SARS-CoV-2, item CCC(=O)OCC(=O)[C@@]1(OC(=O)CC)[C@@H](C)C[C@H]2[C@@H]3CCC4=CC(=O)C=C[C@]4(C)[C@@]3(F)[C@@H](O)C[C@@]21C . Result: 0.98

Value sought: inhibition of SARS-CoV-2 cytopathic effect, system Vero E6 infected with SARS-CoV-2, item CC/C(=C(\c1ccc(O)cc1)c1ccc(OCCN(C)C)cc1)c1ccccc1 . Result: 1.16

Value sought: inhibition of SARS-CoV-2 cytopathic effect, system Vero E6 infected with SARS-CoV-2, item C[C@@H](N)Cc1c[nH]c2ccc(O)cc12 . Result: -1.31

Value sought: inhibition of SARS-CoV-2 cytopathic effect, system Vero E6 infected with SARS-CoV-2, item O=C(NCCCN1CCCCCC1)C(c1ccccc1)C1CCCCC1 (stereo not given) . Result: 0.99

Value sought: inhibition of SARS-CoV-2 cytopathic effect, system Vero E6 infected with SARS-CoV-2, item O=C(Nc1cccnc1)N1CCC(Cc2cccc(Oc3ccc(C(F)(F)F)cn3)c2)CC1 . Result: -2.38

Value sought: inhibition of SARS-CoV-2 cytopathic effect, system Vero E6 infected with SARS-CoV-2, item O=C(Nc1ccccc1C(=O)NC1CCCCNC1=O)c1cc2ccccc2s1 (stereo not given) . Result: -3.72

Value sought: inhibition of SARS-CoV-2 cytopathic effect, system Vero E6 infected with SARS-CoV-2, item Cc1[nH]c(/C=C2\C(=O)Nc3ccc(F)cc32)c(C)c1C(=O)NCCN1CCCC1 . Result: -2.33

Value sought: inhibition of SARS-CoV-2 cytopathic effect, system Vero E6 infected with SARS-CoV-2, item Oc1c(CN2CCCC2)cc(COCc2ccccc2)c2cccnc12 . Result: -0.88

Value sought: inhibition of SARS-CoV-2 cytopathic effect, system Vero E6 infected with SARS-CoV-2, item CN1C2CCC1CC(OC(c1ccccc1)c1ccc(Cl)cc1)C2 (stereo not given) . Result: 6.26

Value sought: inhibition of SARS-CoV-2 cytopathic effect, system Vero E6 infected with SARS-CoV-2, item O=c1sn(-c2cccc3ccccc23)c(=O)n1Cc1ccccc1 . Result: -1.6

Value sought: inhibition of SARS-CoV-2 cytopathic effect, system Vero E6 infected with SARS-CoV-2, item CCOC(CN1CCN(CC(C)C(=O)c2ccccc2)CC1)c1ccccc1 (stereo not given) . Result: -3.53

Value sought: inhibition of SARS-CoV-2 cytopathic effect, system Vero E6 infected with SARS-CoV-2, item CC(C)CC(=O)Nc1n[nH]c2c1CN(C(=O)C1CCN(C)CC1)C2(C)C . Result: -0.22
